B1: HDV Ribozyme (parent)
chain: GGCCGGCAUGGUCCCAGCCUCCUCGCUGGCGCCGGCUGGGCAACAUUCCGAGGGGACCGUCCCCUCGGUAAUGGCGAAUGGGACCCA

variants of: B1; assay: self-cleavage, relative activity (ratio to wild type); higher = more cleavage; co-transcriptional
We use 0.4 as the dividing line for self-cleavage: on or above the line is 1.0, below is 0.0.

Known results for variants:
[[record]]
mutation_key = "A8C A78C"
qualitative_label = 0.0

[[record]]
mutation_key = "C26U A83G"
qualitative_label = 1.0

[[record]]
mutation_key = "G55U U60G"
qualitative_label = 1.0


Say whether C3U G73U shows self-cleavage of 0.4 or more.
0.0

Say whether G6C U69G shows self-cleavage of 0.4 or more.
0.0

Say whether A51U G82A shows self-cleavage of 0.4 or more.
1.0

Say whether A77G C84A shows self-cleavage of 0.4 or more.
1.0

Say whether G17C C26U shows self-cleavage of 0.4 or more.
0.0
